activity coefficient reference
Assay: activity coefficient (dimensionless); of the first substance listed, at infinite dilution; xn = mol fraction of the nth substance listed
Settings: 333.15 K; Liquid; Chromatography; x1 = 0
# respond with the number and nothing more

Solved cases below.
> print(dat)
                                   compound  quantitativereadout
1  CCCCC [pentane] + CCn1cc[n+](C)c1.F[B-](F)(F)F                 53.9
2  CCc1ccccc1 [ethylbenzene] + CCn1cc[n+](C)c1.F[B-](F)(F)F                 5.89
3  CC1CCCCC1 [methylcyclohexane] + CCn1cc[n+](C)c1.F[B-](F)(F)F                 58.9

Input: Please supply the value of reported activity coefficient for the item C1CCOC1 [tetrahydrofuran] + CCn1cc[n+](C)c1.F[B-](F)(F)F
Output: 1.82

Input: Answer with the recorded activity coefficient of CCCCCCCCCC [decane] + CCn1cc[n+](C)c1.F[B-](F)(F)F only.
Output: 751

Input: // Input: ClCCl [dichloromethane] + CCn1cc[n+](C)c1.F[B-](F)(F)F . Output its activity coefficient only.
Output: 1.25

Input: Note activity coefficient for the compound shown: CCCCCCCC [octane] + CCn1cc[n+](C)c1.F[B-](F)(F)F
Output: 173

Input: Using known records, supply activity coefficient for Cc1ccccc1 [toluene] + CCn1cc[n+](C)c1.F[B-](F)(F)F
Output: 3.56

Input: Give activity coefficient for Cc1ccc(C)cc1 [1,4-dimethylbenzene] + CCn1cc[n+](C)c1.F[B-](F)(F)F
Output: 5.03

Input: Identify the reported activity coefficient for the following entry. ClC(Cl)Cl [trichloromethane] + CCn1cc[n+](C)c1.F[B-](F)(F)F
Output: 1.41

Origin of values: the NIST ThermoML archive (doi:10.1021/je800218g)
